Listed compounds paired with reported Activity
Biological target: Transient receptor potential cation channel subfamily V member 1 (Homo sapiens)
Sequence (Q8NER1 whole entry): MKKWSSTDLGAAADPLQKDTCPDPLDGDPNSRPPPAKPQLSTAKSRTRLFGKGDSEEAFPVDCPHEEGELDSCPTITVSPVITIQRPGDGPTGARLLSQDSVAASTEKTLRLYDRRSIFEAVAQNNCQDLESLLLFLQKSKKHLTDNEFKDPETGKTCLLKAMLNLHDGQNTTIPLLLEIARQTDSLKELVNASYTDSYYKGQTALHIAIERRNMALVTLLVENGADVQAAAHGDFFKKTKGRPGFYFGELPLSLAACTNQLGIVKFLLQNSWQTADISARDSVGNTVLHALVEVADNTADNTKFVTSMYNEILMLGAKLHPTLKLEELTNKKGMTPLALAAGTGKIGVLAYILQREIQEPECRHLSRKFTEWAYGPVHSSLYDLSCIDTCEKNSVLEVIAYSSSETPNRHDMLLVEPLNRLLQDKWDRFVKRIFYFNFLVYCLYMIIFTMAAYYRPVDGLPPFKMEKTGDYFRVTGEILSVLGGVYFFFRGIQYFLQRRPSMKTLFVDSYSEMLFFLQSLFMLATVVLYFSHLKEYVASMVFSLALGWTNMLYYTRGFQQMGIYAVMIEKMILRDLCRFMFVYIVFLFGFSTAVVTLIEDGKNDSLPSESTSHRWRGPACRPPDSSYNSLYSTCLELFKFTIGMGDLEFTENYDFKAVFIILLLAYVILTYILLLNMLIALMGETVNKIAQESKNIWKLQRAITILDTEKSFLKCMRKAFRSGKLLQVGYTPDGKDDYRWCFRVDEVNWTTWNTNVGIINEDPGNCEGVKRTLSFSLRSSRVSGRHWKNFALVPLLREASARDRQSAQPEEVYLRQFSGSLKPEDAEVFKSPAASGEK
Test: Inhibition of human TRPV1 overexpressed in BEAS-2B cells assessed as residual activity at 50 uM after 30 mins by Fluo-4 AM fluorescence assay
Format: cell-based
Give the value in % but do not write % after it.

Use the examples below as a reference point.
compound	Activity / %
O=C(O)Cc1ccccc1Nc1c(Cl)cccc1Cl	61
CC(C)Cc1ccc(C(C)C(=O)O)cc1 (configuration not stated)	103
COc1ccc2cc([C@H](C)C(=O)O)ccc2c1	107
O=C(O)c1ccccc1Nc1cccc(C(F)(F)F)c1	66
O=C(c1ccccc1)c1ccc2n1CCC2C(=O)O (configuration not stated)	96
CC(C(=O)O)c1ccc(-c2ccccc2)c(F)c1 (configuration not stated)	103

Given item CC(C(=O)O)c1cccc(C(=O)c2ccccc2)c1 (configuration not stated) , the value recorded as its Activity is 103
